- targetEntity: T1, Human GHR-Fc-10x His (extracellular region of human growth hormone receptor fused to human Fc) (human, UniProt P10912 50-256)
- T1 construct: Captured by its 10x His-tag on a Ni-NTA sensor chip for SPR; not shown: human Fc domain of vector pAB1200 with its linker; 10x His-tag replacing the AviTag
- T1 sequence (looked up): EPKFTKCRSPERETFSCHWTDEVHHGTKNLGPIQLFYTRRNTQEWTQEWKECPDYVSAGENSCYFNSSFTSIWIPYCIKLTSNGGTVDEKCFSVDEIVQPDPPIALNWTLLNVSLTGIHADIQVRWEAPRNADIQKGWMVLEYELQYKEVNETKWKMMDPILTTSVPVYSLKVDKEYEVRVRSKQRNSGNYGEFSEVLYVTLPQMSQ
- protocolNotes: SPR, GHR-Fc-10xHis captured on Ni-NTA chip, Fab as analyte, 1:1 fit
assayEndpoint: kon (M⁻¹ s⁻¹)

[[record]]
binder = "GHR2 Fab (Fab, V domains shown, Fab) VH: EVQLVESGGGLVQPGGSLRLSCAASGFNLYYSSIHWVRQAPGKGLEWVAYISPSYGSTSYADSVKGRFTISADTSKNTAYLQMNSLRAEDTAVYYCARYYDYSWPWYWHGGGPAFDYWGQGTLVTVSS VL: DIQMTQSPSSLSASVGDRVTITCRASQSVSSAVAWYQQKPGKAPKLLIYSASSLYSGVPSRFSGSRSGTDFTLTISSLQPEDFATYYCQQYEEYPLITFGQGTKVEIKR"
measurementunit = "M⁻¹ s⁻¹"
measurednumber = 51200

[[record]]
binder = "GHR4 Fab (Fab, V domains shown, Fab; also called FAB4) VH: EVQLVESGGGLVQPGGSLRLSCAASGFNVYYSYIHWVRQAPGKGLEWVAYISPYSGSTSYADSVKGRFTISADTSKNTAYLQMNSLRAEDTAVYYCARQEWYAFDYWGQGTLVTVSS VL: DIQMTQSPSSLSASVGDRVTITCRASQSVSSAVAWYQQKPGKAPKLLIYSASSLYSGVPSRFSGSRSGTDFTLTISSLQPEDFATYYCQQYWSYLITFGQGTKVEIKR"
measurementunit = "M⁻¹ s⁻¹"
measurednumber = 522000

